study_system: human GIP receptor (Homo sapiens, UniProt P48546)
Construct: expressed in transfected cells; host or cells: BHK (baby hamster kidney) cells; membrane preparation
Sequence (P48546 22-466): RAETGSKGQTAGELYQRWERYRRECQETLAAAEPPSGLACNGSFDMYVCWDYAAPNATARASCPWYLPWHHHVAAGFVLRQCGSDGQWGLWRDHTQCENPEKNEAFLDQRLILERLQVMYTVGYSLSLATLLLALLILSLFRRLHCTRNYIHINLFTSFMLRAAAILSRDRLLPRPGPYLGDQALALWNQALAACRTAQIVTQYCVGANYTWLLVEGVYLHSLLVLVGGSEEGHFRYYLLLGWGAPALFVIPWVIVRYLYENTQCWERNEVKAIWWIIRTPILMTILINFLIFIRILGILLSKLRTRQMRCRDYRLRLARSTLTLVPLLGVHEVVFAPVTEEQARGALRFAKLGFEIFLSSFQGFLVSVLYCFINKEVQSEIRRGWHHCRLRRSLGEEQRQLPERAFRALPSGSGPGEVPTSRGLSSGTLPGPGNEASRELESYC
assay_overview: GIP binding assay
conditions_used: membranes of BHK cells transfected with human GIP receptor; 125I-GIP tracer; SPA
measured_metric: IC50 (nM)

Some entries whose results are on file:
Query string: # IC50 lookup, item N#Cc1cc(NC(=O)N(Cc2ccc(C(=O)NCCC(=O)O)cc2)c2ccc(C3CCCCC3)cc2)cc(C(F)(F)F)c1 [Example 8]
Result string: 76

Query string: Could you do the same for O=C(O)CCNC(=O)c1ccc(CN(C(=O)Nc2ccc(OC(F)(F)F)c(CO)c2)c2ccc(C3CCCCC3)cc2)cc1 [Example 10] , please?
Result string: 107

P = O=C(O)CCNC(=O)c1ccc(CN(C(=O)Nc2cccc(C(F)(F)F)c2)c2ccc(C3CCCCC3)cc2)cc1 [Example 7]
Q = O=C(O)CCNC(=O)c1ccc(CN(C(=O)Nc2ccc(OC(F)(F)F)c(CO)c2)c2ccc(C3=CCCCC3)cc2)cc1 [Example 11]
R = C[C@H](NC(=O)N(Cc1ccc(C(=O)NCCC(=O)O)cc1)c1ccc(C2CCCCC2)cc1)c1ccc(Cl)cc1 [Example 1]
Query string: Arrange the 3 entries by IC50 so the values rise. Please express your ranking as an ordered list of the labels.
Result string: P, Q, R
(P: 82 nM, Q: 152 nM, R: 644 nM)

a = O=C(O)CCNC(=O)c1ccc(CN(C(=O)Nc2cccc(Br)c2)c2ccc(C3=CCCCC3)cc2)cc1 [Example 2]
b = N#Cc1cc(NC(=O)N(Cc2ccc(C(=O)NCCC(=O)O)cc2)c2ccc(C3=CCCCC3)cc2)cc(C(F)(F)F)c1 [Example 9]
Query string: Which item exceeds the other in IC50, a or b ? Respond with the label that goes with your answer.
Result string: a
(a: 198 nM, b: 122 nM)

====

study_system: human GIP receptor (Homo sapiens, UniProt P48546)
Construct: expressed in transfected cells; host or cells: BHK (baby hamster kidney) cells; membrane preparation
Sequence (P48546 22-466): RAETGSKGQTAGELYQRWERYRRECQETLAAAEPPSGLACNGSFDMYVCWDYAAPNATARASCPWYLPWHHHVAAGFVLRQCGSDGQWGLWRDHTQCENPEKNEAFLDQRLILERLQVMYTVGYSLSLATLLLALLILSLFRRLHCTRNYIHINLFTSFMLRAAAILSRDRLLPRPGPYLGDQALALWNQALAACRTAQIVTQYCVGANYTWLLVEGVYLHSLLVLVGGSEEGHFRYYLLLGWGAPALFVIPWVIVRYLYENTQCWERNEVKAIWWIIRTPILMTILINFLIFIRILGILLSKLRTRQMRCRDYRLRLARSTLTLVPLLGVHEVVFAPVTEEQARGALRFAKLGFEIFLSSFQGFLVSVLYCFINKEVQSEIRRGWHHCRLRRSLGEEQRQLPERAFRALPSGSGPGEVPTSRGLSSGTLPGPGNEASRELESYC
assay_overview: GIP binding assay
conditions_used: membranes of BHK cells transfected with human GIP receptor; 125I-GIP tracer; SPA
measured_metric: IC50 (nM)

Query string: # IC50 lookup, item `O=C(O)CCNC(=O)c1ccc(CN(C(=O)Nc2cccc(OC(F)(F)F)c2)c2ccc(C3=CCCCC3)cc2)cc1`
Result string: 34

I = O=C(O)CCNC(=O)c1ccc(CN(C(=O)Nc2cc(F)cc(C(F)(F)F)c2)c2ccc(C3CCCCC3)cc2)cc1
II = O=C(O)CCNC(=O)c1ccc(CN(C(=O)Nc2cccc(Br)c2)c2ccc(C3CCCCC3)cc2)cc1
III = CS(=O)(=O)c1cc(NC(=O)N(Cc2ccc(C(=O)NCCC(=O)O)cc2)c2ccc(C3=CCCCC3)cc2)ccc1OC(F)(F)F
Query string: Order field: IC50 | Direction: descending (largest first) Please express your ranking as an ordered list of the labels.
Result string: II, III, I
(II: 265 nM, III: 177 nM, I: 90 nM)
